Experiment: Clearance in Sprague-Dawley rat at 3 mg/kg, iv measured for 0.25 to 24 hrs by LC-MS/MS analysis
Assay type: ADME, organism-based
Details: in vivo, time 0.25-24 hrs
READOUT KIND: clearance (mL/min/kg)

1) C[C@H](Oc1ccc(-c2cc3c(C4=CCNCC4)ncnc3[nH]2)cc1)c1ccccc1 :: 310

---

Target: UniProtKB O14744
Assay: Inhibition of PRMT5 (unknown origin) using histone H4 (1 to 21 residues) peptide/SAM as substrate incubated for 210 mins in presence of SAM by AlphaLISA assay
READOUT KIND: IC50 (nM)

1. C[C@H](Oc1ccc(-c2cc3c(C4=CCNCC4)ncnc3[nH]2)cc1)c1ccccc1 :: 47

---

Assay: Metabolic stability in rat liver microsomes assessed as half life measured up to 60 mins in presence of NADPH by LC-MS/MS analysis
Type: ADME, Microsome
READOUT KIND: half-life (min)

1) C[C@H](Oc1ccc(-c2cc3c(C4=CCNCC4)ncnc3[nH]2)cc1)c1ccccc1 :: 9.25

---

Molecular target: Histone-lysine N-methyltransferase 2A (Homo sapiens, UniProt Q03164)
Sequence (Q03164 1-2718 limits assumed): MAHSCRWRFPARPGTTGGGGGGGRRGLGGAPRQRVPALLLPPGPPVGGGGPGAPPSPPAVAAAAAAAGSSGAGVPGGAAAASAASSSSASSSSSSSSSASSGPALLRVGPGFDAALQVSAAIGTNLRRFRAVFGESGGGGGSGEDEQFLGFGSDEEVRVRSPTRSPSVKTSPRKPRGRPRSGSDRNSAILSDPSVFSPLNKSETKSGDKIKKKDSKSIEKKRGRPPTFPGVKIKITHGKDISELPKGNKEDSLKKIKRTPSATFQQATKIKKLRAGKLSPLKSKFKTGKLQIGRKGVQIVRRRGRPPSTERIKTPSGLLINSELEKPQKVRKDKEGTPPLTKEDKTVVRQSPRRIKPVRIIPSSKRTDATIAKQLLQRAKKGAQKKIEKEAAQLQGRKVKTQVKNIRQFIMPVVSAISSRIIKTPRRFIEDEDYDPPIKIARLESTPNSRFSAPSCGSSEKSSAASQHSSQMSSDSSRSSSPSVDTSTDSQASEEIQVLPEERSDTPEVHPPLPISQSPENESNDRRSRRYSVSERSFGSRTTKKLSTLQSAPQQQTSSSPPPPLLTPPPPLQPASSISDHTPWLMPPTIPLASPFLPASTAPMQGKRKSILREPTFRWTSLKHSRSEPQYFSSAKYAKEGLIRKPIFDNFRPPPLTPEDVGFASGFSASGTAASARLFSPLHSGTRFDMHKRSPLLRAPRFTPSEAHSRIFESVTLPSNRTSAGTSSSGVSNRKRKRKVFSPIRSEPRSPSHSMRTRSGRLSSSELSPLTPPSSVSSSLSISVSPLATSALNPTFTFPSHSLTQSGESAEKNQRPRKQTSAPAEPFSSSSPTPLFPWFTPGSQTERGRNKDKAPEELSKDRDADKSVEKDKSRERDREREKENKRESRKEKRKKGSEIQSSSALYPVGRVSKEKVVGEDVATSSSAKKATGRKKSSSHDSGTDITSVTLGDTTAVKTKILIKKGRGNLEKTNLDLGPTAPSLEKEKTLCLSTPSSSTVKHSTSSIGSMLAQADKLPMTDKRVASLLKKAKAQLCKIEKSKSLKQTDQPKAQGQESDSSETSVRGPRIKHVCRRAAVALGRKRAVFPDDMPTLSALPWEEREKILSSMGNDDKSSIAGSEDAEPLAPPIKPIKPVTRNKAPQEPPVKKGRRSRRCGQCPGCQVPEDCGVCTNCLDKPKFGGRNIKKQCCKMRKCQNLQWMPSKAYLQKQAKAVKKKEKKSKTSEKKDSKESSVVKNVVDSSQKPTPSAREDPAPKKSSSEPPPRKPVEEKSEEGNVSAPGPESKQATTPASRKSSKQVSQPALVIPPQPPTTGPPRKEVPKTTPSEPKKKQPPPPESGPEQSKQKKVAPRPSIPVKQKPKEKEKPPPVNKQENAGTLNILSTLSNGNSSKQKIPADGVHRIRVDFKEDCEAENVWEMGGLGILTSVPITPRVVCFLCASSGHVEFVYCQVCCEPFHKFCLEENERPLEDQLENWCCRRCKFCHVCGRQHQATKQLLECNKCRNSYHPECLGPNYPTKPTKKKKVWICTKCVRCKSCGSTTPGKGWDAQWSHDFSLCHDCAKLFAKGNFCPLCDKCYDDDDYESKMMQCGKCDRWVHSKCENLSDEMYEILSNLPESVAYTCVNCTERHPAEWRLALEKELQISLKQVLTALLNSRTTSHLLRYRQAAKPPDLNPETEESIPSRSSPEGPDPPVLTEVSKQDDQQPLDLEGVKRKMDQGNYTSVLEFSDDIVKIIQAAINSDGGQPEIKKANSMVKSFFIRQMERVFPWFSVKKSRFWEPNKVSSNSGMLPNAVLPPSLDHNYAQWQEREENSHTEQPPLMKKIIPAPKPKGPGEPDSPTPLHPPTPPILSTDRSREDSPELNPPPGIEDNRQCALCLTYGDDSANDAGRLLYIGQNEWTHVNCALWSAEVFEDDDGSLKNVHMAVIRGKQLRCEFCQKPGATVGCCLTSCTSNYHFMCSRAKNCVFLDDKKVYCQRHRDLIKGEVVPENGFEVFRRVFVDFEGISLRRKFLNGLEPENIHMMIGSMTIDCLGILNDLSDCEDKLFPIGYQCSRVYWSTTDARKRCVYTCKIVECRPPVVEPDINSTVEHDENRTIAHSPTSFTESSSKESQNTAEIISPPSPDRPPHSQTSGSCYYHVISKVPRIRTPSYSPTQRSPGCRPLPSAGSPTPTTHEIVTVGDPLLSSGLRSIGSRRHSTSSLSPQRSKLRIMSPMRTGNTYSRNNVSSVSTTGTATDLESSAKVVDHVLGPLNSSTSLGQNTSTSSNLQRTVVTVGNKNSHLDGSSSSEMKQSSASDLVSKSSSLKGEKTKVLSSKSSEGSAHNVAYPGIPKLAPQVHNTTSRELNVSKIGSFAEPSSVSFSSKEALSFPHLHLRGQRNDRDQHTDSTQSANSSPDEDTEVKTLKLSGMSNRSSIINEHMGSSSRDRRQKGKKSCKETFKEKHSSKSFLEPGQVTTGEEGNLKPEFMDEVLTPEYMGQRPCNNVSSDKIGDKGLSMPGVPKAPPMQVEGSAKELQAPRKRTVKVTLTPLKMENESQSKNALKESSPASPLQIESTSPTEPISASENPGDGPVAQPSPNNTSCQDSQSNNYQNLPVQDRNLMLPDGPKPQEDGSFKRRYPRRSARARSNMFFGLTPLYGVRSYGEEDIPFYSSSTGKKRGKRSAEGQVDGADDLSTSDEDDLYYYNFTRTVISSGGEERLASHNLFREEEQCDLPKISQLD
Sequence (Q03164 2719-3969 limits assumed): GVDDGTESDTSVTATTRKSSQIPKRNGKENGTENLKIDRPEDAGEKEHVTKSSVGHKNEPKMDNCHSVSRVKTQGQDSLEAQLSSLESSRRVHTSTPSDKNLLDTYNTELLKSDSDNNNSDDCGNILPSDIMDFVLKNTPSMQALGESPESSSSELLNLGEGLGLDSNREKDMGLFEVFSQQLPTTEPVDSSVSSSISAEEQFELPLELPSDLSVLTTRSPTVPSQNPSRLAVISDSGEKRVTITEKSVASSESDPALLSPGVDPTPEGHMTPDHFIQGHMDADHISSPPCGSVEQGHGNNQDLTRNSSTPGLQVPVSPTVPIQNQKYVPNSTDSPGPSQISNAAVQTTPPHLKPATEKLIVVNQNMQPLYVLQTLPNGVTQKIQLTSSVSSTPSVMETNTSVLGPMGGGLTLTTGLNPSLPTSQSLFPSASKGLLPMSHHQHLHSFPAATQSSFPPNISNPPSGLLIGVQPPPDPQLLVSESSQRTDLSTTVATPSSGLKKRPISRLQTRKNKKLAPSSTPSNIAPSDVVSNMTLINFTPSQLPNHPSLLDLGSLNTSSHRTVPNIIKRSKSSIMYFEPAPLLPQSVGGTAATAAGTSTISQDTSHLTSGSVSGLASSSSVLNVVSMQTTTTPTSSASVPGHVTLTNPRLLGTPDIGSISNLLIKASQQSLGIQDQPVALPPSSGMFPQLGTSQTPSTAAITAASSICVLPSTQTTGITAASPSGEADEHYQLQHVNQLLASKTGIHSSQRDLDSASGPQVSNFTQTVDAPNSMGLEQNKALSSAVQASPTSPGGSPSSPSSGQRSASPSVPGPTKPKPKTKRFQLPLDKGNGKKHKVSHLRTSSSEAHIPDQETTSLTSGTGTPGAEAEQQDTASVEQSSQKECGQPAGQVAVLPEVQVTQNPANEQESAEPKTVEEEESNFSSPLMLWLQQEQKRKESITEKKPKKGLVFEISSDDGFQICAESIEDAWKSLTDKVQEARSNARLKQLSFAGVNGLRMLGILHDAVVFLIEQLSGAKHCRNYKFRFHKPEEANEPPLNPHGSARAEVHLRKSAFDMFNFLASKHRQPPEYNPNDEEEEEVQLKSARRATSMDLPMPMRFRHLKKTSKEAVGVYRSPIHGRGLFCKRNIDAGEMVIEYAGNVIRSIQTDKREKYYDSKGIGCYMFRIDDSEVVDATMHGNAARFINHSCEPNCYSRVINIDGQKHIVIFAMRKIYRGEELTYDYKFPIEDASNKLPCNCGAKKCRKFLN
READOUT KIND: IC50

1) C[C@H](Oc1ccc(-c2cc3c(C4=CCNCC4)ncnc3[nH]2)cc1)c1ccccc1 :: > 20 µM

---

Quick reference for pIC50 among some molecules
System: A-375
Assay: Antiproliferation activity against human A-375 cells assessed as cell growth inhibition incubated for 5 days by CCK-8 assay
Settings: A-375, 120 h
pIC50: −log10 of the molar value.
READOUT KIND: pIC50

1) C[C@@H](Oc1ccc(-c2nc3c(C4=CCNCC4)ncnc3[nH]2)c(F)c1)c1ccccc1 :: 5.06
2) C[C@@H](Oc1ccc(-c2cc3c(C4=CCNCC4)ncnc3[nH]2)c(F)c1)c1ccccc1 :: 5.19
3) CC(Oc1ccc(-c2cc3c(C4=CCNCC4)ncnc3[nH]2)c(F)c1)c1ccccc1 (racemic) :: 5.34
4) CC(Oc1ccc(-c2nc3c(C4=CCNCC4)ncnc3[nH]2)cc1)c1ccccc1 (racemic) :: 5.14
5) C[C@H](Oc1ccc(-c2cc3c(C4=CCNCC4)ncnc3[nH]2)cc1F)c1ccccc1 :: 5.46
6) C[C@@H](Oc1ccc(-c2cc3c(C4=CCNCC4)ncnc3[nH]2)cc1)c1ccccc1 :: 5.59

---

Experiment: Metabolic stability in mouse liver microsomes assessed as half life measured up to 60 mins in presence of NADPH by LC-MS/MS analysis
Type: ADME, Microsome
READOUT KIND: half-life (h)

1. C[C@H](Oc1ccc(-c2cc3c(C4=CCNCC4)ncnc3[nH]2)cc1)c1ccccc1 :: 1.14

---

Assay: Volume of distribution at steady state in mouse at 3 mg/kg, iv measured for 0.25 to 24 hrs by LC-MS/MS analysis
Assay type: ADME, organism-based
Details: in vivo, time 0.25-24 hrs, read-out: Vdss
READOUT KIND: Vd (L/kg)

1) C[C@H](Oc1ccc(-c2cc3c(C4=CCNCC4)ncnc3[nH]2)cc1)c1ccccc1.Cl :: 47.7

---

Test system: A-375
Test: Antiproliferation activity against human A-375 cells assessed as cell growth inhibition incubated for 5 days by CCK-8 assay
Conditions: A-375, 120 h
pIC50: −log10 of the molar value.
Quick reference for pIC50 among some compounds
READOUT KIND: pIC50

1) Cc1cc(-c2cc3c(C4=CCNCC4)ncnc3[nH]2)ccc1O[C@@H](C)c1ccccc1 :: 5.08
2) C[C@H](Oc1ccc(-c2nc3c(C4=CCNCC4)ncnc3[nH]2)c(F)c1)c1ccccc1 :: 5.27
3) C[C@@H](Oc1ccc(-c2nc3c(C4=CCNCC4)ncnc3[nH]2)cc1)c1ccccc1 :: 5.12
4) C[C@H](Oc1ccc(-c2nc3c(C4=CCNCC4)ncnc3[nH]2)cc1)c1ccccc1 :: 5.22
5) COc1cc(O[C@@H](C)c2ccccc2)ccc1-c1cc2c(C3=CCNCC3)ncnc2[nH]1 :: 5.10
6) CC(Oc1ccc(-c2cc3c(C4=CCNCC4)ncnc3[nH]2)cc1)c1ccccc1 (racemic) :: 5.61
7) Cc1cc(O[C@@H](C)c2ccccc2)ccc1-c1cc2c(C3=CCNCC3)ncnc2[nH]1 :: 5.47
8) C[C@H](Oc1ccc(-c2cc3c(C4=CCNCC4)ncnc3[nH]2)c(F)c1)c1ccccc1 :: 5.76
9) CC(Oc1ccc(-c2nc3c(C4=CCNCC4)ncnc3[nH]2)c(F)c1)c1ccccc1 (racemic) :: 5.12

---

Biological target: Protein arginine N-methyltransferase 5 (Homo sapiens, UniProt O14744)
Sequence (O14744 whole entry): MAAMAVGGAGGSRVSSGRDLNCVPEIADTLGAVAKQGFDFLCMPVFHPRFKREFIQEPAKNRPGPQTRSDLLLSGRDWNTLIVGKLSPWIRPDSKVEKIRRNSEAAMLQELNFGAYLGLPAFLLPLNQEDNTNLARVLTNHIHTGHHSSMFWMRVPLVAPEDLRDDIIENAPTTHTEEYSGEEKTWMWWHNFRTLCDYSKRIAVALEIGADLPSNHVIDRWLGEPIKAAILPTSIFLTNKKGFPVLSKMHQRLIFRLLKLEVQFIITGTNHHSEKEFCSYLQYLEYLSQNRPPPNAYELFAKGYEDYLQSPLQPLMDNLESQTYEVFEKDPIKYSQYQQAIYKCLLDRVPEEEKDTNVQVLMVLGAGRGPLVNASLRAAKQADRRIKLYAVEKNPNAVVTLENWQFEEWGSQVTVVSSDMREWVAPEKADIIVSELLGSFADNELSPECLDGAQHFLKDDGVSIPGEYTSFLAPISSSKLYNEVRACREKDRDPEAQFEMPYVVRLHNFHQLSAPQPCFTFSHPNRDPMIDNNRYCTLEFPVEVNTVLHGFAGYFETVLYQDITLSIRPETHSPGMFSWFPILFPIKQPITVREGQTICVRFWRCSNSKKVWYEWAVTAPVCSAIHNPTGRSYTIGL
Assay: Displacement of [3H]-SAM from PRMT5 (unknown origin) using peptide substrate preincubated for 15 mins followed by substrate addition for 60 mins by radioactive biochemical assay
pIC50: −log10 of the molar value.
READOUT KIND: pIC50

1. C[C@H](Oc1ccc(-c2cc3c(C4=CCNCC4)ncnc3[nH]2)cc1F)c1ccccc1 :: 7.62
2. O=C1CN(c2ncnc3[nH]c(-c4ccc(OCc5ccccc5)cc4)cc23)CCN1 :: 7.29
3. CN(C)CCN(C)c1ncnc2[nH]c(-c3ccc(OCc4ccccc4)cc3)cc12 :: 7.76
4. c1ccc(COc2ccc(-c3cc4c(N5CCOCC5)ncnc4[nH]3)cc2)cc1 :: 7.26
5. c1ccc(COc2ccc(-c3cc4c(N5CCN(C6COC6)CC5)ncnc4[nH]3)cc2)cc1 :: 7.40

---

Experiment: Oral bioavailability in mouse at 10 mg/kg, measured for 0.25 to 24 hrs by LC-MS/MS analysis
Type: ADME, organism-based
Conditions: in vivo, time 0.25-24 hrs
READOUT KIND: bioavailability (%)

1. C[C@H](Oc1ccc(-c2cc3c(C4=CCNCC4)ncnc3[nH]2)cc1)c1ccccc1.Cl :: 46.2

---

Assay: Oral bioavailability in Sprague-Dawley rat at 10 mg/kg, measured for 0.25 to 24 hrs by LC-MS/MS analysis
Type: ADME, organism-based
Conditions: in vivo, time 0.25-24 hrs
READOUT KIND: bioavailability

1) C[C@H](Oc1ccc(-c2cc3c(C4=CCNCC4)ncnc3[nH]2)cc1)c1ccccc1 :: 7.25%
2) C[C@H](Oc1ccc(-c2cc3c(C4=CCNCC4)ncnc3[nH]2)cc1)c1ccccc1.Cl :: 23.7%

---

Assay: Metabolic stability in human liver microsomes assessed as half life incubated for 10 mins measured up to 60 mins in presence of NADPH by LC-MS/MS analysis
Type: ADME, Microsome
Quick reference for half-life among some compounds
READOUT KIND: half-life (min)

1) C[C@H](Oc1ccc(-c2nc3c(C4=CCNCC4)ncnc3[nH]2)c(F)c1)c1ccccc1 :: 41.3
2) C[C@H](Oc1ccc(-c2cc3c(C4=CCNCC4)ncnc3[nH]2)c(F)c1)c1ccccc1 :: 42.3
3) C[C@H](Oc1ccc(-c2nc3c(C4=CCNCC4)ncnc3[nH]2)cc1)c1ccccc1 :: 70.1
4) CC(Oc1ccc(-c2cc3c(C4=CCNCC4)ncnc3[nH]2)cc1)c1ccccc1 (racemic) :: 26
5) Cc1cc(-c2cc3c(C4=CCNCC4)ncnc3[nH]2)ccc1O[C@@H](C)c1ccccc1 :: 56.8
6) Cc1cc(O[C@@H](C)c2ccccc2)ccc1-c1cc2c(C3=CCNCC3)ncnc2[nH]1 :: 47.3
7) C[C@@H](Oc1ccc(-c2cc3c(C4=CCNCC4)ncnc3[nH]2)cc1)c1ccccc1 :: 18.3
8) C1=C(c2ncnc3[nH]c(-c4ccc(OCc5ccccc5)cc4)cc23)CCNC1 :: 2.99
9) C[C@H](Oc1ccc(-c2cc3c(C4=CCNCC4)ncnc3[nH]2)cc1)c1ccccc1 :: 41.8
10) C1=C(c2ncnc3[nH]c(-c4ccc(OCc5ccccc5)cc4)nc23)CCNC1 :: 2.09
11) C[C@H](Oc1ccc(-c2cc3c(C4=CCNCC4)ncnc3[nH]2)cc1F)c1ccccc1 :: 56.2

---

Assay: Plasma protein binding in rat by LC-MS/MS analysis
Format: ADME, cell-free
Settings: read-out: PPB (converted)
READOUT KIND: fraction unbound

1) C[C@H](Oc1ccc(-c2cc3c(C4=CCNCC4)ncnc3[nH]2)cc1)c1ccccc1 :: 0.014

---

Target: Protein arginine N-methyltransferase 5 (Homo sapiens)
Experiment: Displacement of [3H]-SAM from PRMT5 (unknown origin) using peptide substrate preincubated for 15 mins followed by substrate addition for 60 mins by radioactive biochemical assay
Quick reference for IC50 among some compounds
READOUT KIND: IC50 (nM)

1. c1ccc(COc2ccc(-c3cc4c(N5CCC6(CC5)COC6)ncnc4[nH]3)cc2)cc1 :: 51
2. Cc1cc(-c2cc3c(C4=CCNCC4)ncnc3[nH]2)ccc1O[C@@H](C)c1ccccc1 :: 80.9
3. c1ccc(COc2ccc(-c3nc4c(N5CCNCC5)ncnc4[nH]3)cc2)cc1 :: 11.5
4. c1ccc(COc2ccc(-c3cc4c(N5CCNCC5)ncnc4[nH]3)cc2)cc1 :: 11.4
5. Cc1cc(O[C@@H](C)c2ccccc2)ccc1-c1cc2c(C3=CCNCC3)ncnc2[nH]1 :: 32.8

The reported numbers originate from ChEMBL document CHEMBL5154928.
